Each entry below lists one item and its recorded viability, T/C value.
Tested on: 323965-272-R-J2-PDC complex spheroid viability
measurement-description: Anticancer human tumor 323965-272-R-J2-PDC patient-derived pancreatic carcinoma cell line growth inhibition [CLK]
condition-info: second compound 3.16 µM; first compound 0.316 µM; hits give low values
Write the number in % without appending the unit.

Consider the worked cases shown below.
- compound: "CCCS(=O)(=O)Nc1ccc(F)c(C(=O)c2c[nH]c3ncc(-c4ccc(Cl)cc4)cc23)c1F + CNC(=O)c1ccc(Nc2nc(OC3CCCC3)c3c(-c4ccc5nc(C)oc5c4)c[nH]c3n2)c(OC)c1"
  experimental-target: "323965-272-R-J2-PDC complex spheroid viability"
  reported: 53.6
- compound: "C#Cc1c(F)ccc2cc(O)cc(-c3ncc4c(N5CC6CCC(C5)N6)nc(OCC56CCCN5CC(F)C6)nc4c3F)c12 (stereo not given) + CN1CCN(c2cc(C(=O)Nc3cc4cc(-c5cnn(C)c5)ccc4cn3)ccn2)CC1"
  experimental-target: "323965-272-R-J2-PDC complex spheroid viability"
  reported: 3.39
- compound: "COC1C=CCC(C)C(C)S(=O)(=O)NC(=O)c2ccc3c(c2)N(CC2CCC21)CC1(CCCc2cc(Cl)ccc21)CO3 (stereo not given) + CNC(=O)c1ccc(Nc2nc(OC3CCCC3)c3c(-c4ccc5nc(C)oc5c4)c[nH]c3n2)c(OC)c1"
  experimental-target: "323965-272-R-J2-PDC complex spheroid viability"
  reported: 36.7
- compound: "CC1COCCN1c1cc(C2(S(C)(=N)=O)CC2)nc(-c2ccnc3[nH]ccc23)n1 (stereo not given) + CNC(=O)c1ccc(Nc2nc(OC3CCCC3)c3c(-c4ccc5nc(C)oc5c4)c[nH]c3n2)c(OC)c1"
  experimental-target: "323965-272-R-J2-PDC complex spheroid viability"
  reported: 39.2

The record that follows has no viability, T/C shown yet.
Give viability, T/C for CC(CO)NC(=O)c1cc(-c2ccc(Cl)cc2)nn(-c2cnn(C)c2)c1=O (stereo not given) + CN1CCN(c2cc(C(=O)Nc3cc4cc(-c5cnn(C)c5)ccc4cn3)ccn2)CC1
3.4

###

We begin with a simple list: items and their reported viability, T/C.
Test system: 323965-272-R-J2-PDC complex spheroid viability
measurement-description: Anticancer human tumor 323965-272-R-J2-PDC cell line growth inhibition [CLK];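 further: spheroids exposed to agents for seven days before readout; percent of DMSO vehicle control wells so 100% = untreated growth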
condition-info: second compound 3.16 µM; first compound 0.0316 µM; hits give low values
Form entry: value (%) — number only.

- molecule: "COc1c(OCCCN2CCOCC2)ccc2c3n(c(=NC(=O)c4cnc(N)nc4)nc12)CCN3 + CNC(=O)c1ccc(Nc2nc(OC3CCCC3)c3c(-c4ccc5nc(C)oc5c4)c[nH]c3n2)c(OC)c1"
  property-name: "viability, T/C"
  units-label: "%"
  reported: 23.3

Report measured viability, T/C; entry is CCc1c2c(nc3ccc(O)cc13)-c1cc3c(c(=O)n1C2)COC(=O)[C@]3(O)CC + CNC(=O)c1ccc(Nc2nc(OC3CCCC3)c3c(-c4ccc5nc(C)oc5c4)c[nH]c3n2)c(OC)c1
25.3

Supply viability, T/C value. Item: CC1COCCN1c1cc(C2(S(C)(=N)=O)CC2)nc(-c2ccnc3[nH]ccc23)n1 (stereo not drawn) + CN1CCN(c2cc(C(=O)Nc3cc4cc(-c5cnn(C)c5)ccc4cn3)ccn2)CC1
4.84
